# target_entity: mammalian tyrosinase (Mus musculus)
# Construct: Cellular lysates of Mel-Ab cells may be used as tyrosinase enzyme preparations; endogenous in cells; host or cells: Mel-Ab mouse melanocytes (cell lysate)
# Sequence (P11344 19-533): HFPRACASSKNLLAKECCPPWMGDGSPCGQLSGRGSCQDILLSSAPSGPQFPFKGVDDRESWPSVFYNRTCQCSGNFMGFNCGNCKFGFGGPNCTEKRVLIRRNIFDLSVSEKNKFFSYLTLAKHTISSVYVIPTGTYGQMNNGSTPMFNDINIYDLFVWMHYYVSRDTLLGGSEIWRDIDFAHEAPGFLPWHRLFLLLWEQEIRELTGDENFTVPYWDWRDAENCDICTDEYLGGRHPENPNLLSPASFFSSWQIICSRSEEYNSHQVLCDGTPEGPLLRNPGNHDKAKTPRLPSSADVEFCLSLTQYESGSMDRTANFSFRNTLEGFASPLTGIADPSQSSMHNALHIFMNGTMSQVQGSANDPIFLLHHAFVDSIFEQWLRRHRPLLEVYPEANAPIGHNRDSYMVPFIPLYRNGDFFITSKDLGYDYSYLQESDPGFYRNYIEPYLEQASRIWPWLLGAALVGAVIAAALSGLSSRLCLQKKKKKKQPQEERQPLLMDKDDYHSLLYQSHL
# assay_info: cell-free mammalian tyrosinase enzyme assay
# Format: biochemical
# condition: cell-free enzyme extract; read-out: E: concentration of compound that produces 50% inhibition in the cell-free mammalian tyrosinase enzyme assay
quantity_measured: pIC50
// returns pIC50 (minus log10 of molar concentration), number only

Some solved cases for reference:
Cc1cccc(C(=O)N(C)O)c1 [ID-485, 3,N-Dimethylbenzohydroxamic acid]	4.17
Cc1ccc(C(=O)NO)cc1N [ID-499, 13-Amino-4-methyl-benzohydroxamic acid]	5.19
O=C(NO)c1ccccc1O [ID-282, Salicylhydroxamic acid]	5.43
CC(=O)c1ccc(O)c(C(=O)NO)c1	4.29

Note: attention shifts to another entry.
With mammalian tyrosinase (Mus musculus) as the test system, COc1ccc(C(=O)N[O-])cc1.[K+] showed pIC50 of 5.78

Value source: patent US20030199558A1
